System: ER/IL-6
ASSAY_PROTOCOL: Endothelial Cell ER/IL-6 Assay, IL-6 promoter luciferase (Table 2)
Type: cell-based, human
STATED_CONDITIONS: Homo sapiens, HAECT1; ERα infected HAECT-1 cells, IL-1β; read-out: IL6 luc IC50
Field: IC50. Provide a value for each of the compounds that follow.
Give bare numbers, in nM.

As a guide, the following entries are already answered.
Query string: State the recorded IC50 for this entry: COC[C@@](C#N)(C(=O)N1CCN(c2ncccn2)CC1)[C@@H](c1ccccc1OC)c1cccc2ccccc12
Result string: 268

Query string: Entry under review: COc1ccccc1[C@H](c1cccc2ccccc12)[C@@](C)(C#N)C(=O)N1CCC2(CC1)C(=O)NCN2c1ccccc1 . Reported IC50?
Result string: 445

Query string: What does the record list as IC50 for COc1ccccc1[C@H](c1cccc2ccccc12)[C@@](C)(C#N)C(=O)N1CCC(N2C(=O)Cc3ccccc32)CC1 ?
Result string: 122

Query string: Field request: IC50 | item: COc1ccccc1C(c1cnc2ccccc2c1)C(C)(C#N)C(=O)N1CCC(c2cccc(C(F)(F)F)c2)CC1 (stereo not drawn)
Result string: 32

Query string: Recorded IC50 for COc1ccccc1C(c1ccnc2ccccc12)C(C)(C#N)C(=O)N1CCC(c2cccc(C(F)(F)F)c2)CC1 (stereo not drawn) , please?
Result string: 798

Need IC50 for each of these compounds.
1. COc1ccccc1[C@H](c1cccc2ccccc12)[C@@](C)(C#N)C(=O)N1CCC(O)(c2cccc(C(F)(F)F)c2)CC1
2. COc1ccccc1C(c1cccc2ccccc12)C(C#N)(COCc1ccccc1)C(=O)N1CCN(CCN2CCOCC2)CC1 (stereo not drawn)
3. COc1ccccc1[C@H](c1cccc2ccccc12)[C@@](C)(C#N)C(=O)N1CCC(n2c(=O)[nH]c3ccccc32)CC1
4. COc1ccccc1C1CCN(C(=O)[C@](C)(C#N)[C@H](c2ccccc2OC)c2cccc3ccccc23)CC1
5. COCCOC[C@@](C#N)(C(=O)OC)[C@@H](c1ccccc1OC)c1cccc2ccccc12
6. COC[C@](C#N)(C(=O)OC(C)(C)C)[C@H](c1ccccc1OC)c1cccc2ccccc12 (relative stereo)
7. COc1ccccc1[C@H](c1cccc2ccccc12)[C@@](C)(C#N)C(=O)N1CCN(c2ncccn2)CC1
8. COC[C@](C#N)(C(=O)N1CCN(c2ncccn2)CC1)[C@H](c1ccccc1OC)c1cccc2ccccc12

Result string:
1: 324; 2: 13; 3: 361; 4: 15; 5: 273; 6: 18; 7: 44; 8: 16
